- PROCEDURE TEXT: DSC of DMPC bilayers with inhibitor
- Format: physicochemical
- CONDITION SUMMARY: heating
RECORDED ENDPOINT: Decrease of Tm compared to DMPC without inhibitor

CCC1(NCCNCC=C(C)CCC=C(C)C)C2CC3CC(C2)CC1C3 (stereo not drawn) [Compound 8c] : ~6.6 °C
CCCCCCC1(NCCNCC=C(C)CCC=C(C)C)C2CC3CC(C2)CC1C3 (stereo not drawn) [Compound 8f] : ~9.7 °C
CC(C)=CCCC(C)=CCNCCNC1(c2ccccc2)C2CC3CC(C2)CC1C3 (stereo not drawn) [Compound 8h] : ~8.8 °C
CC(C)=CCC/C(C)=C/CNCCNC1C2CC3CC(C2)CC1C3 (stereo not drawn) [Compound 8a, reference compound] : 3–4 °C
CC(C)=CCCC(C)=CCNCCNC(C)(C)C12CC3CC(CC(C3)C1)C2 [Compound 12] : 3–4 °C
CCCC1(NCCNCC=C(C)CCC=C(C)C)C2CC3CC(C2)CC1C3 (stereo not drawn) [Compound 8d] : ~6 °C
CCCCC1(NCCNCC=C(C)CCC=C(C)C)C2CC3CC(C2)CC1C3 (stereo not drawn) [Compound 8e] : ~7.8 °C
CC(C)=CCCC(C)=CCNCCNC1(Cc2ccccc2)C2CC3CC(C2)CC1C3 (stereo not drawn) [Compound 8g] : ~6.9 °C

###

A collection of compounds and their measured pIC50
- Tested on: L. donovani promastigotes
- PROCEDURE TEXT: L. donovani promastigote growth inhibition
- Assay type: cell-based, Leishmania donovani
- CONDITION SUMMARY: Leishmania donovani, read-out: L. donovani IC50
pIC50: −log10 of the molar value.
RECORDED ENDPOINT: pIC50

CC(C)=CCCC(C)=CCNC(=O)CNC1(C)C2CC3CC(C2)CC1C3 (stereo not shown) [Compound 14b] : 4.96
CCCC1(NCC(=O)NCC=C(C)CCC=C(C)C)C2CC3CC(C2)CC1C3 (stereo not shown) [Compound 14d] : 5.08
CC(C)=CCCC(C)=CCNCC(=O)NC(C)(C)C12CC3CC(CC(C3)C1)C2 : 5.30
CCC1(NCCNCC=C(C)CCC=C(C)C)C2CC3CC(C2)CC1C3 (stereo not shown) : 5.68
CC(C)=CCCC(C)=CCNC(=O)CNC(C)(C)C12CC3CC(CC(C3)C1)C2 : 4.92
CC(C)=CCCC(C)=CCNCC(=O)NC1(c2ccccc2)C2CC3CC(C2)CC1C3 (stereo not shown) : 4.59
CC(C)=CCC/C(C)=C/CNCCNC1C2CC3CC(C2)CC1C3 (stereo not shown) [Compound 8a, reference compound] : 5.70
CCCCC1(NC(=O)CNCC=C(C)CCC=C(C)C)C2CC3CC(C2)CC1C3 (stereo not shown) : 4.60
CCC1(NC(=O)CNCC=C(C)CCC=C(C)C)C2CC3CC(C2)CC1C3 (stereo not shown) : 4.36
CC(C)=CCCC(C)=CCNCC(=O)NC1(Cc2ccccc2)C2CC3CC(C2)CC1C3 (stereo not shown) : 4.57

###

- PROCEDURE TEXT: DSC of DSPG bilayers with inhibitor
- Type: physicochemical
- CONDITION SUMMARY: 10 wt % inhibitor, PBS pH 7.4, heating
Quick rule for you: ΔT1/2 at 2 °C or higher means True, lower means False.

CC(C)=CCC/C(C)=C/CNCCNC1C2CC3CC(C2)CC1C3 (stereo not drawn) [Compound 8a, reference compound] : True
CC(C)=CCCC(C)=CCNCCNC1(Cc2ccccc2)C2CC3CC(C2)CC1C3 (stereo not drawn) : False
CCCCCCC1(NCCNCC=C(C)CCC=C(C)C)C2CC3CC(C2)CC1C3 (stereo not drawn) : False
CCCC1(NCCNCC=C(C)CCC=C(C)C)C2CC3CC(C2)CC1C3 (stereo not drawn) : False
CC(C)=CCCC(C)=CCNCCNC(C)(C)C12CC3CC(CC(C3)C1)C2 : True
CCC1(NCCNCC=C(C)CCC=C(C)C)C2CC3CC(C2)CC1C3 (stereo not drawn) : True
CC(C)=CCCC(C)=CCNCCNC1(c2ccccc2)C2CC3CC(C2)CC1C3 (stereo not drawn) : True
CCCCC1(NCCNCC=C(C)CCC=C(C)C)C2CC3CC(C2)CC1C3 (stereo not drawn) : True

###

- PROCEDURE TEXT: in vitro
- CONDITION SUMMARY: human
// reported viability at 20 µM per item
RECORDED ENDPOINT: viability at 20 µM (%)

CCC1(NCCNCC=C(C)CCC=C(C)C)C2CC3CC(C2)CC1C3 (stereo not drawn) : 43
CC(C)=CCCC(C)=CCNC(=O)CNC1(C)C2CC3CC(C2)CC1C3 (stereo not drawn) [Compound 14b] : 94
CCCC1(NCC(=O)NCC=C(C)CCC=C(C)C)C2CC3CC(C2)CC1C3 (stereo not drawn) [Compound 14d] : 100
CC(C)=CCCC(C)=CCNCC(=O)NC(C)(C)C12CC3CC(CC(C3)C1)C2 : 100
CC(C)=CCC/C(C)=C/CNCCNC1C2CC3CC(C2)CC1C3 (stereo not drawn) [Compound 8a, reference compound] : 97
CC(C)=CCCC(C)=CCNC(=O)CNC(C)(C)C12CC3CC(CC(C3)C1)C2 : 76

###

ΔH by entry:
- PROCEDURE TEXT: DSC of DSPG bilayers with inhibitor
- Format: physicochemical
- CONDITION SUMMARY: 10 wt % inhibitor, PBS pH 7.4, heating
RECORDED ENDPOINT: ΔH

CCC1(NCCNCC=C(C)CCC=C(C)C)C2CC3CC(C2)CC1C3 (stereo not drawn) : 11.9 kcal/mol
CC(C)=CCCC(C)=CCNCCNC1(c2ccccc2)C2CC3CC(C2)CC1C3 (stereo not drawn) : 13.2 kcal/mol
CC(C)=CCCC(C)=CCNCCNC(C)(C)C12CC3CC(CC(C3)C1)C2 : 13.3 kcal/mol
CC(C)=CCCC(C)=CCNCCNC1(C)C2CC3CC(C2)CC1C3 (stereo not drawn) : 12.7 kcal/mol
CC(C)=CCC/C(C)=C/CNCCNC1C2CC3CC(C2)CC1C3 (stereo not drawn) [Compound 8a, reference compound] : 12.9 kcal/mol
CC(C)=CCCC(C)=CCNCCNC1(Cc2ccccc2)C2CC3CC(C2)CC1C3 (stereo not drawn) : 13.3 kcal/mol
CCCCCCC1(NCCNCC=C(C)CCC=C(C)C)C2CC3CC(C2)CC1C3 (stereo not drawn) : 8.75 kcal/mol
CCCC1(NCCNCC=C(C)CCC=C(C)C)C2CC3CC(C2)CC1C3 (stereo not drawn) : 11.5 kcal/mol
CCCCC1(NCCNCC=C(C)CCC=C(C)C)C2CC3CC(C2)CC1C3 (stereo not drawn) : 9.2 kcal/mol

###

- SYSTEM UNDER TEST: M. tuberculosis MmpL3 (MtMmpL3) (Mycobacterium tuberculosis)
- Sequence (P9WJV5 whole entry): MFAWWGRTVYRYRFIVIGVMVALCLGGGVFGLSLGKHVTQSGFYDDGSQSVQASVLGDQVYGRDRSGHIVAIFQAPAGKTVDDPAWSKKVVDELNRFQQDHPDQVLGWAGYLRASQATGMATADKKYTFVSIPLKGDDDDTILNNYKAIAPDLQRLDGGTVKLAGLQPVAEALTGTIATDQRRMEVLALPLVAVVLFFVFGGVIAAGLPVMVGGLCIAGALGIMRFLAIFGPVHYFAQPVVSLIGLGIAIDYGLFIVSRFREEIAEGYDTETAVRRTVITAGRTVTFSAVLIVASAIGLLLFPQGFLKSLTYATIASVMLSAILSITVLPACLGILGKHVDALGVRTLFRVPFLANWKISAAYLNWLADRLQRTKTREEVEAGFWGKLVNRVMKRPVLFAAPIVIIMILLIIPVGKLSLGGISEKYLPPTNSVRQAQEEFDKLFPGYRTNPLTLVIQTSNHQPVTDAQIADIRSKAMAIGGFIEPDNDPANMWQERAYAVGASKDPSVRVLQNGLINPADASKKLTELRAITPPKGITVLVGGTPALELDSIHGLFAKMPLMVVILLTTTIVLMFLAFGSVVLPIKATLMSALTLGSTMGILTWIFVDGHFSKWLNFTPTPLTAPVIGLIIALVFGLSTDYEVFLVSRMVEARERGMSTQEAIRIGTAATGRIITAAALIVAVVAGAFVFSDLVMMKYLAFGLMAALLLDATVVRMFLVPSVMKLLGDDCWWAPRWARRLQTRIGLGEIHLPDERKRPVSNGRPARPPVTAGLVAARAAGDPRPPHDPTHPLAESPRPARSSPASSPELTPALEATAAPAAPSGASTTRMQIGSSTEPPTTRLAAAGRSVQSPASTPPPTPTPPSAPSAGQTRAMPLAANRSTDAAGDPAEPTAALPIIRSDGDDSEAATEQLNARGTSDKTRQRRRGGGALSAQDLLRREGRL
- PROCEDURE TEXT: Surface plasmon resonance binding to MmpL3
- CONDITION SUMMARY: two-state model
RECORDED ENDPOINT: kd1 (s⁻¹)

CC(C)=CCCC(C)=CCNCCNC1(Cc2ccccc2)C2CC3CC(C2)CC1C3 (stereo not shown) : 0.5715
CCC1(NCCNCC=C(C)CCC=C(C)C)C2CC3CC(C2)CC1C3 (stereo not shown) : 1.284
CCCC1(NCCNCC=C(C)CCC=C(C)C)C2CC3CC(C2)CC1C3 (stereo not shown) : 0.9488
CC(C)=CCCC(C)=CCNC(=O)CNC1(C)C2CC3CC(C2)CC1C3 (stereo not shown) [Compound 14b] : 1.363

###

- System: Bacillus subtilis
- PROCEDURE TEXT: B. subtilis growth inhibition
- Assay type: cell-based
- CONDITION SUMMARY: Bacillus subtilis, read-out: Bs IC50
pIC50: −log10 of the molar value.
pIC50 for assorted compounds
RECORDED ENDPOINT: pIC50

CC(C)=CCCC(C)=CCNCC(=O)NC1(Cc2ccccc2)C2CC3CC(C2)CC1C3 (stereo not drawn) : 5.64
CC(C)=CCC/C(C)=C/CNCCNC1C2CC3CC(C2)CC1C3 (stereo not drawn) [Compound 8a, reference compound] : 4.80
CCCCC1(NC(=O)CNCC=C(C)CCC=C(C)C)C2CC3CC(C2)CC1C3 (stereo not drawn) : 5.55
CC(C)=CCCC(C)=CCNCC(=O)NC1(c2ccccc2)C2CC3CC(C2)CC1C3 (stereo not drawn) : 5.35
CCC1(NCCNCC=C(C)CCC=C(C)C)C2CC3CC(C2)CC1C3 (stereo not drawn) : 5.37
CCC1(NC(=O)CNCC=C(C)CCC=C(C)C)C2CC3CC(C2)CC1C3 (stereo not drawn) : 5.72

###

Catalogue of ΔT1/2 values
- PROCEDURE TEXT: DSC of DMPC bilayers with inhibitor
- Type: physicochemical
- CONDITION SUMMARY: 10 wt % inhibitor, PBS pH 7.4, heating
RECORDED ENDPOINT: ΔT1/2 (°C)

CC(C)=CCCC(C)=CCNCCNC1(c2ccccc2)C2CC3CC(C2)CC1C3 (stereo not drawn) : 2.7
CC(C)=CCC/C(C)=C/CNCCNC1C2CC3CC(C2)CC1C3 (stereo not drawn) [Compound 8a, reference compound] : 2.6
CC(C)=CCCC(C)=CCNCCNC1(C)C2CC3CC(C2)CC1C3 (stereo not drawn) : 2.2
CCCCCCC1(NCCNCC=C(C)CCC=C(C)C)C2CC3CC(C2)CC1C3 (stereo not drawn) : 5.1
CCCCC1(NCCNCC=C(C)CCC=C(C)C)C2CC3CC(C2)CC1C3 (stereo not drawn) : 2.2
CC(C)=CCCC(C)=CCNCCNC1(Cc2ccccc2)C2CC3CC(C2)CC1C3 (stereo not drawn) : 10
CCC1(NCCNCC=C(C)CCC=C(C)C)C2CC3CC(C2)CC1C3 (stereo not drawn) : 2.0
CC(C)=CCCC(C)=CCNCCNC(C)(C)C12CC3CC(CC(C3)C1)C2 : 4.1
CCCC1(NCCNCC=C(C)CCC=C(C)C)C2CC3CC(C2)CC1C3 (stereo not drawn) : 2.2
